# ASSAYED_TARGET: HLA-B*5401 (human)
# METHOD_DESCRIPTION: competition vs 125I probe, purified HLA
# EXPERIMENTAL_SETUP: remark: other sources report otherwise
RESULT_TYPE: pIC50
# pIC50 = -log10(concentration in molar units)

Exam item: # input binder: IPWQRLLLTA [CEA.13] ; wanted: its pIC50
Marked response: 8.49
